System: Bacillus subtilis
METHOD_NOTES: cleaved RNA product abundance (RNA/gDNA barcode ratio) relative to median wild-type variant (ratio to wild type); higher = more accumulation of the downstream cleavage product
RECORDED_CONDITIONS: experiment (reporter, strain, medium): exp 4a: truncated aprE reporter, strain BJT201 with 2% xylose (RNase J1 expressed); cleavage site: cggR-gapA (positions -7 to +36 mutated)
So I've got a bunch of sequences here, and I need their cleaved RNA product abundance values.
Give bare numbers.

# annotated cases, reported cleaved RNA product abundance shown
• ACAGACGAAGGAGCCGCAAAGAAGTTATTAAGGGAAGAATAATCCCTAAATATAAAAATCTCTCACTTATTTAAA = 0.415
• ACAGACGAAGGAGCCGCAAAGAAGTTATTAAGGGCTGAATAATCCCTCAATATACATATCTCTCACTTATTTAAA = 0.433
• ACAGACGAAGGAGCCGCAAAGAAGTTATTAAGGCATGAATAATCCCTCATTATAAATATCTCTCACTTATTTAAA = 0.0852

We now examine a further sequence.
Q) Output measured cleaved RNA product abundance for this item: `ACAGACGAAGGAGCCGCAAAGAAGTCATTAAGGGATAAATAATCCCTCAATATAAATATCTCTCACTTATTTAAA`
A) 0.308
